- Tested on: MOLM14 F691L cells
- experiment.notes: MOLM14 F691L cell viability assay (Cell Titer Glo)
- Format: cell-based
- condition.notes: Homo sapiens, MOLM-14; cell viability, Cell Titer Glo, 48 hours; read-out: MOLM14 F691L IC50
pIC50: −log10 of the molar value.
Label class 1 when pIC50 < 7; otherwise class 0.

{"molecule": "COc1cc2ncc(-c3nc(N[C@@H]4CCCNC4)ncc3F)n2nc1N1CCOCC1 [Compound 120a]", "assigned.class": "class 0"}
{"molecule": "CC(C)(O)c1ccc2ncc(-c3nc(N[C@H]4CNCC[C@@H]4F)ncc3F)n2c1 [Compound 46a]", "assigned.class": "class 1"}
{"molecule": "COc1cc2ncc(-c3nc(N[C@H]4CNC[C@@H]4F)ncc3F)n2nc1C12CC(C1)C2 [Compound 67a]", "assigned.class": "class 0"}

Hi there! Is pIC50 for COc1cc2ncc(-c3ccnc(N[C@H]4CNC[C@@H]4F)n3)n2nc1C1CC2(CCC2)C1 [Compound 75a] below 7, do you know?
class 1

Hi there! Is pIC50 for COc1cc2ncc(-c3nc(N[C@H]4CNC[C@@H]4F)ncc3F)n2nc1C1CC(C)(C)C1 [Compound 55a] below 7, do you know?
class 1

Where do the numbers come from? From patent US20260226048A1.
